Target: Glutamate NMDA receptor; Grin1/Grin2c (Rattus norvegicus, UniProt P35439+Q00961)
Sequence (Q00961 whole entry, other chains not shown): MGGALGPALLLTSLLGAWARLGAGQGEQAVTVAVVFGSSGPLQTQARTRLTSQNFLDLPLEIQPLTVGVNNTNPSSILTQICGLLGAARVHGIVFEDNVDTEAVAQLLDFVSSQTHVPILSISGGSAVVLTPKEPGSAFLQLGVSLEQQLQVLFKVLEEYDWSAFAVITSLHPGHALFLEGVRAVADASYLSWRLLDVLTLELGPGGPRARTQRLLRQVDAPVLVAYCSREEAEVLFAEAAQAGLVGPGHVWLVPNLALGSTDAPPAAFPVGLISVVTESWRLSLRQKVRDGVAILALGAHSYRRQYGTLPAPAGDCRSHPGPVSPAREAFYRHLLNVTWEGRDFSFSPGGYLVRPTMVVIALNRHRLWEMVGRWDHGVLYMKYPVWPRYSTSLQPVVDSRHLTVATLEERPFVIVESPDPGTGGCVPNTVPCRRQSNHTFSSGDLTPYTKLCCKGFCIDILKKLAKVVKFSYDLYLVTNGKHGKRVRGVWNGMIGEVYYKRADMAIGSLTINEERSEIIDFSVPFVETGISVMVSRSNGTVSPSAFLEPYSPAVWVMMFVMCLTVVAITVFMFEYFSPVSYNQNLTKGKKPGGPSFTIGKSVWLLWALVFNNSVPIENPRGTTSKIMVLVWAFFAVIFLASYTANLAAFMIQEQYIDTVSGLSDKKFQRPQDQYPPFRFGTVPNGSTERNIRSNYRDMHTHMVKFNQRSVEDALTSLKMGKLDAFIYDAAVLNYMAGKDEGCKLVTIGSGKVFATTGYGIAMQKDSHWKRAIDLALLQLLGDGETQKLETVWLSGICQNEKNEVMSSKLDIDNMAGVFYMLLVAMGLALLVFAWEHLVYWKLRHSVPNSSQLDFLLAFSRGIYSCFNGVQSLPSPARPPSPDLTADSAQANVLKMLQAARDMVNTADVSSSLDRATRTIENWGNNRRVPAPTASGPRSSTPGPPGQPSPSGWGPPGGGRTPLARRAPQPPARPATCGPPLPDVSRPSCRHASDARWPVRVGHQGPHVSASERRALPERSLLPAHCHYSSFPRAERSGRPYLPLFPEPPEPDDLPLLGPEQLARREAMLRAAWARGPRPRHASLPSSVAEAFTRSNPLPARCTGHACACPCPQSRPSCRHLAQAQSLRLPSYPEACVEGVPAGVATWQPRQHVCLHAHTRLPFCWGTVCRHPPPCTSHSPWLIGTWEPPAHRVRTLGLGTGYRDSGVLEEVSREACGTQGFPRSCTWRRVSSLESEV
Experiment: Activity at rat recombinant GluN1/GluN2C receptor assessed as potentiation of glycine/glutamate-induced activation by two-electrode voltage clamp technique
pEC50: −log10 of the molar value.
Assign class by pEC50: not lower than 6 means T; lower than 6 means F.

Problem: Please tell me: is the compound COc1ccc(OCC2c3ccc(OCc4ccccc4)cc3CCN2C(=O)c2cccc(Br)c2)cc1 (stereo not given) at or over 6 in terms of pEC50?
Result: T

Next item in the queue.
Problem: Please tell me: is the compound COc1ccc(OCC2c3c(cc(OC)cc3OC)CCN2C(=O)c2cccc(Br)c2)cc1 (racemic) at or over 6 in terms of pEC50?
Result: F

###

Target: Glutamate NMDA receptor; Grin1/Grin2c (Rattus norvegicus, UniProt P35439+Q00961)
Experiment: Activity at rat recombinant GluN1/GluN2C receptor assessed as potentiation of glycine/glutamate-induced activation by two-electrode voltage clamp technique
measured property: EC50 (µM)
Please give a number only; it is taken to be in µM.

Below: 3 compounds and their reported EC50.
Please fill in: EC50 reported for COc1ccc(OCC2c3ccc(OC)cc3CCN2C(=O)c2ccccc2)cc1 (racemic) = 7.5

Please fill in: EC50 reported for COc1ccc(CCC2c3cc(OC)c(OC)cc3CCN2C(=O)c2cccc(Br)c2)cc1 (racemic) = 11

Please fill in: EC50 reported for COc1ccc(/C=C/C2c3cc(OC)c(OC)cc3CCN2C(=O)c2ccccc2)cc1 (racemic) = 35

Continuing:
Please fill in: EC50 reported for COc1ccc(OCC2c3ccc(C)cc3CCN2C(=O)c2ccccc2)cc1 (racemic) = 24

###

Biological target: UniProt P41145
Sequence (P41145 whole entry): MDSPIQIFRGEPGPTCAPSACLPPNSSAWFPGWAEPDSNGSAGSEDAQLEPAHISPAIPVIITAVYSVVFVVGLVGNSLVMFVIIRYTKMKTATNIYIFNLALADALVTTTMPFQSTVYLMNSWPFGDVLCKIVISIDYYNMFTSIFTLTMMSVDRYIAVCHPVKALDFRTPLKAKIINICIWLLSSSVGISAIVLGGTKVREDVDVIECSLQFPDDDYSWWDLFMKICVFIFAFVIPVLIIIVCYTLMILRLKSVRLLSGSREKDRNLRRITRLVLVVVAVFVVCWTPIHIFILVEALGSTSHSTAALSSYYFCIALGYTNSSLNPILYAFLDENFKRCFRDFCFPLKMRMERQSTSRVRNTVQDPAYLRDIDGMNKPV
measured property: Ki

Please fill in: Ki reported for COc1ccc(OCC2c3ccc(OCc4ccccc4)cc3CCN2C(=O)c2cccc(Br)c2)cc1 (stereo unspecified) = > 5 µM

###

Target: Ionotropic glutamate receptor NMDA 1/2D (Rattus norvegicus, UniProt P35439+Q62645)
Sequence (Q62645 whole entry, other chains not shown): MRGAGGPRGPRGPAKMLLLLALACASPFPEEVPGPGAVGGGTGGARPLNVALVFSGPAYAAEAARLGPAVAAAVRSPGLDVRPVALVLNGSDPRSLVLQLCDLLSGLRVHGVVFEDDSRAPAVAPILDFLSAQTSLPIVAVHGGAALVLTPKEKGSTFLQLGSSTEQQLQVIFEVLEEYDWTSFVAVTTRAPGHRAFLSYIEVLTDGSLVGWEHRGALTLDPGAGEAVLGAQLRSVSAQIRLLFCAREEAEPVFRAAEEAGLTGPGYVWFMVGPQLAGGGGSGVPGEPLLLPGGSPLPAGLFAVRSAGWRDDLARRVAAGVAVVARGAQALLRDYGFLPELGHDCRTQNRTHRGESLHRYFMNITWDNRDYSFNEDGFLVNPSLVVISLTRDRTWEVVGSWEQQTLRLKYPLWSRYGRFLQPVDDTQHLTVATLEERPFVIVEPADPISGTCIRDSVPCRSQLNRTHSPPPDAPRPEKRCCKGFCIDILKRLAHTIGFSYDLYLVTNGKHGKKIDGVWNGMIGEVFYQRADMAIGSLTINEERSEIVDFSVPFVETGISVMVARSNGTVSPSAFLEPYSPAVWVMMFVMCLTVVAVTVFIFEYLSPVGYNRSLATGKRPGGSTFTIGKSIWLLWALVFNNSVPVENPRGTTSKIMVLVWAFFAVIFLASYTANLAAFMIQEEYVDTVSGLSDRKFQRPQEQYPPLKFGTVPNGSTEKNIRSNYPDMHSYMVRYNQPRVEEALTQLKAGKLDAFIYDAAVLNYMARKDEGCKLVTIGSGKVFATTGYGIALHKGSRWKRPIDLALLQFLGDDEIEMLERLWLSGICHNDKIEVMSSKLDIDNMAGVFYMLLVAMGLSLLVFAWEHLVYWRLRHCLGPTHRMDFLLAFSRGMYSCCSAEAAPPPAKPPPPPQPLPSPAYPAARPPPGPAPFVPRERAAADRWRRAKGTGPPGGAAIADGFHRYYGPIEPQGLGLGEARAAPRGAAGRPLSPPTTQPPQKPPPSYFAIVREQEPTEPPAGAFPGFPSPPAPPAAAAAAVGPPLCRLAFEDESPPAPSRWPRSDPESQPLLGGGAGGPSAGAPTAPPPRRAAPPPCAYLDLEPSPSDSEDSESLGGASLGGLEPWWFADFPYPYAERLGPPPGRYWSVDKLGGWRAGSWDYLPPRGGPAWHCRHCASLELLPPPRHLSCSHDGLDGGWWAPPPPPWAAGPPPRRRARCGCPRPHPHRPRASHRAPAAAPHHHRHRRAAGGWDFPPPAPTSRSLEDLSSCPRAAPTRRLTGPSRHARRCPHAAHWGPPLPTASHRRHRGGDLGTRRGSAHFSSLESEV
Assay: Activity at rat recombinant GluN1/GluN2D receptor assessed as potentiation of glycine/glutamate-induced activation by two-electrode voltage clamp technique
Assign labels as follows, please: true (1) for EC50 below 5 µM; false (0) for EC50 equal to or exceeding 5 µM.

Check out these entries, answers already filled in.
Problem: Input COc1ccc(OCC2c3cc4c(cc3CCN2C(=O)c2cccc(Br)c2)OCO4)cc1 (racemic) ; condition: EC50 strictly below 5 µM. Does it hold?
Result: true (1)

Problem: Input COc1ccc(OCC2c3ccc(OC)cc3CCN2C(=O)c2ccccc2)cc1 (racemic) ; condition: EC50 strictly below 5 µM. Does it hold?
Result: false (0)

Problem: Input COc1ccc(CCC2c3cc(OC)c(OC)cc3CCN2C(=O)c2cccc(Br)c2)cc1 (racemic) ; condition: EC50 strictly below 5 µM. Does it hold?
Result: false (0)

Problem: Input COc1ccc(OCC2c3cc(OC)c(OC)cc3CCN2C(=O)c2cccc(C)c2)cc1 (racemic) ; condition: EC50 strictly below 5 µM. Does it hold?
Result: false (0)

Problem: Input COc1ccc(OCC2c3cc(OC)c(OC)cc3CCN2C(=O)c2ccccc2)cc1 (racemic) ; condition: EC50 strictly below 5 µM. Does it hold?
Result: false (0)

Continuing:
Problem: Input COc1ccc(OCC2c3cc(OC)c(OC)cc3CCN2C(=O)c2cccc(F)c2)cc1 (racemic) ; condition: EC50 strictly below 5 µM. Does it hold?
Result: false (0)

Problem: Input COc1ccc(OCC2c3cc(OC)c(OC)cc3CCN2C(=O)c2cc(Cl)cc(Cl)c2)cc1 (racemic) ; condition: EC50 strictly below 5 µM. Does it hold?
Result: true (1)

Problem: Input COc1ccc(OCC2c3cc(OC)c(OC)cc3CCN2C(=O)c2cccc(OC)c2)cc1 (racemic) ; condition: EC50 strictly below 5 µM. Does it hold?
Result: false (0)

Problem: Input COc1ccc(OCC2c3ccc(OCc4ccccc4)cc3CCN2C(=O)c2ccccc2)cc1 (racemic) ; condition: EC50 strictly below 5 µM. Does it hold?
Result: true (1)

Problem: Input COc1ccc(OCC2c3cc(C)c(C)cc3CCN2C(=O)c2cccc(Cl)c2)cc1 (racemic) ; condition: EC50 strictly below 5 µM. Does it hold?
Result: true (1)

Problem: Input COc1ccc(OCC2c3cc(OC)c(OC)cc3CCN2C(=O)c2cccc(C(Cl)Cl)c2)cc1 (racemic) ; condition: EC50 strictly below 5 µM. Does it hold?
Result: false (0)

Problem: Input COc1ccc(OCC2c3cc(OC)c(OC)cc3CCN2C(=O)c2cccc([N+](=O)[O-])c2)cc1 (racemic) ; condition: EC50 strictly below 5 µM. Does it hold?
Result: false (0)

Problem: Input COc1ccc(OCC2c3cc4c(cc3CCN2C(=O)c2cccc(Cl)c2)OCO4)cc1 (racemic) ; condition: EC50 strictly below 5 µM. Does it hold?
Result: false (0)

// data source = ChEMBL document CHEMBL2396604
